Each entry below carries its reported Activity of mutant relative to wild-type Gaussia luciferase without the signal peptide.
ASSAY_REMARKS: Luminescence activity assay of purified Gaussia luciferase mutants on coelenterazine
Format: biochemical
Parameters: key: ratio of mutant luminescence intensity to wild-type Gaussia luciferase
MEASUREMENT_CONTEXT: Substrate CTZ (Table 16)
Lab note: write the figure by itself, no unit.

The cases that follow already have their Activity of mutant relative to wild-type Gaussia luciferase without the signal peptide on record.
MOLECULE	NUMERIC_READOUT
F26R V29E A30G V31L A36D T37E L40S K159: Gaussia luciferase mutant (protein) MGVKVLFALICIAVAEAKPTENNEDRNIEGLASNFDETDSDADRGKLPGKKLPLEVLKEMEANARKAGCTRGCLICLSHIKCTPKMKKFIPGRCHTYEGDKESAQGGIGEAIVDIPEIPGFKDLEPMEQFIAQVDLCVDCTTGCLKGLANVQCSDLLKKWLPQRCATFASKIQGQVDKIKGAGGD	0.000
F26I N27D V29A A30D V31I S33K A36N T37K L40P: Gaussia luciferase mutant (protein, SIGNAL (1)..(17), Gaussia luciferase mutant) MGVKVLFALICIAVAEAKPTENNEDIDIADIAKNFNKTDPDADRGKLPGKKLPLEVLKEMEANARKAGCTRGCLICLSHIKCTPKMKKFIPGRCHTYEGDKESAQGGIGEAIVDIPEIPGFKDLEPMEQFIAQVDLCVDCTTGCLKGLANVQCSDLLKKWLPQRCATFASKIQGQVDKIKGAGGD	0.016
E102K S103T A104G E110G V138D: Gaussia luciferase mutant (protein, SIGNAL (1)..(17), Gaussia luciferase mutant) MGVKVLFALICIAVAEAKPTENNEDFNIVAVASNFATTDLDADRGKLPGKKLPLEVLKEMEANARKAGCTRGCLICLSHIKCTPKMKKFIPGRCHTYEGDKKTGQGGIGGAIVDIPEIPGFKDLEPMEQFIAQVDLCDDCTTGCLKGLANVQCSDLLKKWLPQRCATFASKIQGQVDKIKGAGGD	0.106
Q152H Q163T T167G S170D G174N A182M G183A: Gaussia luciferase mutant (protein, SIGNAL (1)..(17), Gaussia luciferase mutant) MGVKVLFALICIAVAEAKPTENNEDFNIVAVASNFATTDLDADRGKLPGKKLPLEVLKEMEANARKAGCTRGCLICLSHIKCTPKMKKFIPGRCHTYEGDKESAQGGIGEAIVDIPEIPGFKDLEPMEQFIAQVDLCVDCTTGCLKGLANVHCSDLLKKWLPTRCAGFADKIQNQVDKIKGMAGD	0.080

Now let's try a different one.
Per the records, this molecule ( F26I V29F A30G A32E S33D A36N T37D L40T: Gaussia luciferase mutant (protein, SIGNAL (1)..(17), Gaussia luciferase mutant) MGVKVLFALICIAVAEAKPTENNEDINIFGVEDNFNDTDTDADRGKLPGKKLPLEVLKEMEANARKAGCTRGCLICLSHIKCTPKMKKFIPGRCHTYEGDKESAQGGIGEAIVDIPEIPGFKDLEPMEQFIAQVDLCVDCTTGCLKGLANVQCSDLLKKWLPQRCATFASKIQGQVDKIKGAGGD ) has Activity of mutant relative to wild-type Gaussia luciferase without the signal peptide equal to 1.120
